measured_property: logP
Lab note: write the figure by itself, no unit.

Solved cases below.
{"compound": "ClCC1(CCl)C2C(Cl)C(Cl)C1(CCl)C(Cl)(Cl)C2Cl (stereo not drawn)", "logP": 5.74}
{"compound": "ClC=C1C2CC(C1(CCl)CCl)C(Cl)(Cl)C2Cl (stereo not drawn)", "logP": 5.2}
{"compound": "ClCC1(CCl)C(=C(Cl)Cl)C2CC1C(Cl)(Cl)C2Cl (stereo not drawn)", "logP": 5.44}
{"compound": "ClCC1(C(Cl)Cl)C2CC(Cl)C1(C(Cl)Cl)CC2(Cl)Cl (stereo not drawn)", "logP": 5.75}
{"compound": "ClCC1(C(Cl)Cl)C2CC(Cl)(Cl)C1(C(Cl)Cl)CC2(Cl)Cl (stereo not drawn)", "logP": 5.96}
{"compound": "ClC[C@@]1(C(Cl)Cl)[C@@H]2CC(Cl)(Cl)[C@@]1(C(Cl)Cl)[C@H](Cl)C2(Cl)Cl", "logP": 6.64}
{"compound": "ClCC1(C(Cl)Cl)C2CC(Cl)(Cl)C1(C(Cl)Cl)C(Cl)C2Cl (stereo not drawn)", "logP": 5.8}
{"compound": "ClCC1(C(Cl)Cl)C2C(Cl)CC1(C(Cl)Cl)C(Cl)C2Cl (stereo not drawn)", "logP": 5.19}

Give the reported logP for this compound. ClC=C1C2C(Cl)C(Cl)C(C2Cl)C1(CCl)CCl (stereo not drawn) 5.35

Give the reported logP for this compound. CC1(CCl)C2CC(Cl)(Cl)C1(C(Cl)Cl)CC2Cl (stereo not drawn) 5.49

Give the reported logP for this compound. ClCC1(CCl)C2[C@@H](Cl)[C@H](Cl)C1(C(Cl)Cl)[C@@H](Cl)[C@@H]2Cl 5.57

Give the reported logP for this compound. C[C@]1(C(Cl)Cl)[C@H]2CC(Cl)(Cl)[C@]1(C(Cl)Cl)CC2(Cl)Cl 5.9

Give the reported logP for this compound. CC1(C(Cl)Cl)C2C(Cl)C(Cl)C1(C(Cl)Cl)C(Cl)C2Cl (stereo not drawn) 5.52
